experimental_endpoint: melting point

Example molecules with recorded melting point:
Cc1oc(-c2cccc(C#N)c2)nc1CCl: 100 to 101 °C
COC(=O)c1ccc(NC(=O)c2ccccc2-c2ccccc2)cc1Cl: 132 to 134 °C
CCS(=O)(=O)c1cc(C(=O)NCC2CCCN2CC2CCC2)c(OC)cc1N (centres undefined): 170 °C
O=S(=O)(c1ccccc1)c1cc(Cl)c2oc3c(c2c1)CC(O)CC3 (centres undefined): 236 to 240 °C
N#Cc1cc(C[C@H](N)C(=O)O)ccc1O: > 250 °C

Given the molecule Cc1cc(-n2ccnc2)c2cccc(OCc3c(Cl)ccc(S(=O)(=O)N4CCCC4)c3Cl)c2n1 , write its reported melting point. 193 °C

Given the molecule CC(=O)Nc1ccc(S(=O)(=O)Nc2nc(=O)n(C3CC3)cc2C)cc1 , write its reported melting point. 176 to 181 °C

Given the molecule N#CCNC(=O)C(Cl)=C(Cl)Cl , write its reported melting point. 58 to 60 °C

Given the molecule CCn1c2ccc3ccccc3c2c2cccc(C)c21 , write its reported melting point. 79 to 83 °C

Given the molecule COc1ccc(OC)c(CCc2ccc3c(c2)C(=O)NCN3)c1 , write its reported melting point. 138 to 140 °C

Given the molecule O=C(O)CCCCC=C(c1ccccc1)c1ccccc1 , write its reported melting point. 71.5 to 72.5 °C

Given the molecule CC1(C)CCC(C)(C)c2c(O)cc(Br)cc21 , write its reported melting point. 93 °C

Given the molecule CNC(=O)C=C(C)C=CC=C(C)C=Cc1c(C)cc(OC)c(C)c1C , write its reported melting point. 206 °C

Given the molecule COC(=O)C1=C(C)NC(=O)N(C(=O)OC(C)C)C1c1cccc(Cl)c1Cl (centres undefined) , write its reported melting point. 162 to 163 °C

Given the molecule CCOC(=O)c1cn2c3c(c(F)c(F)c(F)c3c1=O)C(C(=O)OC(C)(C)C)(C(=O)OC(C)(C)C)CN2C , write its reported melting point. 169 to 173 °C

Given the molecule COc1cccc2c1C(=CC(=O)c1ccccc1)OC2=O , write its reported melting point. 165 °C

Given the molecule O=c1ccn2c(n1)CN=C(c1ccccc1)c1cc(Cl)ccc1-2 , write its reported melting point. 208 to 209 °C

Given the molecule CCN(C(=O)c1ccccc1C(=O)c1ccc(F)cc1)C(C)(C)CNS(=O)(=O)c1ccc(C)cc1 , write its reported melting point. 154 to 156 °C

Given the molecule COc1ccccc1NC(=O)Nc1ccc(C2CCN(C(=O)Nc3ccc(OCCO)cc3Cl)CC2)cc1 , write its reported melting point. 166 to 168 °C

Given the molecule CC(COc1ccc(CC(N)=O)cc1Cl)NCC(O)c1cccc(Cl)c1 (centres undefined) , write its reported melting point. 99 to 101 °C

* * *

experimental_endpoint: melting point

Example compounds with recorded melting point:
COc1cc2[nH]c3nc[nH]c(=O)c3c2cc1OC: 296 to 298 °C
c1ccc2c(c1)Oc1ccccc1-n1nnnc1-2: 206 to 208 °C
CCC1(CC)C(=O)Nc2ccccc21: 156 to 159 °C

Given the compound O=C(O)CCCC#CCC1=CC(O)CC1=O (stereo unspecified) , write its reported melting point. 65 to 71 °C

Given the compound Cc1ccsc1C(=O)NP(N)(N)=O , write its reported melting point. 267 to 275 °C

Given the compound CCCN(CCN1CCN(c2ccccc2OC)CC1)C1CCc2ncsc2C1 (stereo unspecified) , write its reported melting point. 136 °C

Where do the numbers come from? From a melting point compilation (Tetko et al.; mined from patent text by program, amines drawn as free bases though some values may be those of a salt).
